Reference source for all entries: ChEMBL document CHEMBL1671659

Test system: Staphylococcus aureus
Assay: Antibacterial activity against methicillin-sensitive dfrB-positive abd dfrA, dfrG-negative Staphylococcus aureus
Assay type: functional
MIC reference
ASSAY ENDPOINT: MIC (µg/mL)

# MOLECULE, CENSORING QUALIFIER, ENDPOINT VALUE
data = [
    ("COc1cc(Cc2cnc(N)nc2N)cc(/C=C/C(=O)N2N=Cc3ccccc3C2c2cnc(N3CCOCC3)nc2)c1OC (centres undefined)", "=", 0.5),
    ("COc1cc(Cc2cnc(N)nc2N)cc(/C=C/C(=O)N2N=Cc3ccccc3C2c2cnc(N(C)C)nc2)c1OC (centres undefined)", "=", 1),
    ("COc1cc(Cc2cnc(N)nc2N)cc(OC)c1OC", "≤", 0.25),
    ("COc1ncc(C2c3ccccc3C=NN2C(=O)/C=C/c2cc(Cc3cnc(N)nc3N)cc(OC)c2OC)cn1 (centres undefined)", "≤", 0.25),
]

---

Tested on: Staphylococcus aureus
Assay: Antibacterial activity against vancomycin, trimethoprim, methicillin-resistant Staphylococcus aureus VRS1 harboring dfrA and dfrB genes
Type: functional
MIC values, listed per item
ASSAY ENDPOINT: MIC (µg/mL)

# COMPOUND, SYSTEM UNDER TEST, UNIT SPEC, CENSORING QUALIFIER, ENDPOINT VALUE
rows = [
    ("COc1cc(Cc2cnc(N)nc2N)cc(/C=C/C(=O)N2N=Cc3ccccc3C2c2cnc(N3CCOCC3)nc2)c1OC (stereo not given)", "Staphylococcus aureus", "µg/mL", "=", 2),
    ("COc1cc(Cc2cnc(N)nc2N)cc(/C=C/C(=O)N2N=Cc3ccccc3[C@@H]2c2cnc(N3CCOCC3)nc2)c1OC", "Staphylococcus aureus", "µg/mL", "=", 2),
    ("COc1cc(Cc2cnc(N)nc2N)cc(/C=C/C(=O)N2N=Cc3ccccc3[C@@H]2c2cnc(N(C)C)nc2)c1OC", "Staphylococcus aureus", "µg/mL", "=", 2),
    ("COc1cc(Cc2cnc(N)nc2N)cc(OC)c1OC [TRIMETHOPRIM]", "Staphylococcus aureus", "µg/mL", ">", 128),
    ("COc1cc(Cc2cnc(N)nc2N)cc(/C=C/C(=O)N2N=Cc3ccccc3[C@H]2c2cnc(N(C)C)nc2)c1OC", "Staphylococcus aureus", "µg/mL", ">", 8),
    ("COc1ncc([C@H]2c3ccccc3C=NN2C(=O)/C=C/c2cc(Cc3cnc(N)nc3N)cc(OC)c2OC)cn1", "Staphylococcus aureus", "µg/mL", "=", 2),
    ("COc1cc(Cc2cnc(N)nc2N)cc(/C=C/C(=O)N2N=Cc3ccccc3C2c2cnc(N(C)C)nc2)c1OC (stereo not given)", "Staphylococcus aureus", "µg/mL", "=", 2),
    ("COc1cc(Cc2cnc(N)nc2N)cc(/C=C/C(=O)N2N=Cc3ccccc3[C@H]2c2cnc(N3CCOCC3)nc2)c1OC", "Staphylococcus aureus", "µg/mL", ">", 8),
    ("COc1ncc([C@@H]2c3ccccc3C=NN2C(=O)/C=C/c2cc(Cc3cnc(N)nc3N)cc(OC)c2OC)cn1", "Staphylococcus aureus", "µg/mL", ">", 8),
    ("COc1ncc(C2c3ccccc3C=NN2C(=O)/C=C/c2cc(Cc3cnc(N)nc3N)cc(OC)c2OC)cn1 (stereo not given)", "Staphylococcus aureus", "µg/mL", "=", 4),
]
